Test system: LG0567-F671-PDC KRAS tumor spheroid viability;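 note: drug exposure lasted seven days after spheroids formed for three days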
test.name: Anticancer human tumor LG0567-F671-PDC patient-derived lung adenocarcinoma cell line growth inhibition [KRAS2]
assay.setup: second compound 10 µM; first compound 1 µM; active compounds read low; spheroids with HUVEC and MSC
The label MET is reserved for viability, T/C strictly under 6%; NOT MET covers values equal to or above it.

O=C(c1cc(Cc2n[nH]c(=O)c3ccccc23)ccc1F)N1CCN(C(=O)C2CC2)CC1 + CC1OCC2(CCN(c3cnc(Sc4ccnc(N)c4Cl)c(N)n3)CC2)C1N
NOT MET

Problem: Report whether reported viability, T/C is lower than 6% (strictly) for CC1OCC2(CCN(c3cnc(Sc4ccnc(N)c4Cl)c(N)n3)CC2)C1N (stereo not given) + CNCc1ccccc1-c1csc(C(C)Nc2nc(C)nc3cc(OC)c(OC)cc23)c1
Solution: MET

Problem: Report whether reported viability, T/C is lower than 6% (strictly) for COc1cc(Nc2ncc3c(n2)-c2ccc(Cl)cc2C(c2c(F)cccc2OC)=NC3)ccc1C(=O)O + CNCc1ccccc1-c1csc(C(C)Nc2nc(C)nc3cc(OC)c(OC)cc23)c1
Solution: MET

Problem: Report whether reported viability, T/C is lower than 6% (strictly) for Cn1nccc1Nc1nccc(-c2cc3c(s2)C(C)(C)N(CCN2CCOCC2)C3=O)n1 + C=CC(=O)N1CCN(c2nc(=O)n(-c3c(C)ccnc3C(C)C)c3nc(-c4c(O)cccc4F)c(F)cc23)C(C)C1
Solution: NOT MET

Numbers sourced from PubChem BioAssay AID1963856.
